Where do these numbers come from? They come from patent US20260258141A1.

# binding ratio (Analyte 2 / Analyte 1) listing for each entry below
- assayed_system: T1, His-tagged human IGF1R protein (ACRO Biosystems Inc., Cat #: IGR-H5229) (human, UniProt P08069 31-932)
- T1 construct: Bought protein; also called hIGF1R-His; not shown: His tag
- T1 sequence (P08069 31-932): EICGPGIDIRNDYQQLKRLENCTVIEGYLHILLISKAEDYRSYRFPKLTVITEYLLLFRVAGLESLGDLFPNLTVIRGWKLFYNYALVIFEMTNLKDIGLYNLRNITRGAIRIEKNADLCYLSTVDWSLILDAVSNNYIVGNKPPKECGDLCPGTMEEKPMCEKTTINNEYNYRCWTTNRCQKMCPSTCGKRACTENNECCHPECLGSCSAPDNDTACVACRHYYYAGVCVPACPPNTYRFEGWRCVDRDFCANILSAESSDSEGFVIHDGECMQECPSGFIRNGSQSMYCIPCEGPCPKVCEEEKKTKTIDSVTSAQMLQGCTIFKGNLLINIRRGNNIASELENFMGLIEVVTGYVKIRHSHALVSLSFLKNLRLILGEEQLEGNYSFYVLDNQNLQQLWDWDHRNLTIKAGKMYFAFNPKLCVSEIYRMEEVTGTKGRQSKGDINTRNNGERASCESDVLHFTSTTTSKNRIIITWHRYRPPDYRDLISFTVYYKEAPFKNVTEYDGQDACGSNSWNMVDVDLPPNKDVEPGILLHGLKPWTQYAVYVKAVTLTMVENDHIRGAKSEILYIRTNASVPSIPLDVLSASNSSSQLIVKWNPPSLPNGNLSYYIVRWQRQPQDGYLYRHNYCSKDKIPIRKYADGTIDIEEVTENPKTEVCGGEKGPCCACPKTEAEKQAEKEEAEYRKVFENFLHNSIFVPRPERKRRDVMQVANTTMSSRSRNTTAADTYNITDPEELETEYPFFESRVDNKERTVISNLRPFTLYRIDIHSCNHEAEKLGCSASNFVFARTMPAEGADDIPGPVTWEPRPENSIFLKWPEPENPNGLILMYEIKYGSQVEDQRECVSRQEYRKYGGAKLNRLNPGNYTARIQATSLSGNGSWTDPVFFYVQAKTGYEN
- protocol_details: SPR (Biacore 8K) on captured hIGF1R-His, binder injected second (Analyte 2); competitor injected first (Analyte 1): 12D1
- Experimental: Epitope binding assays were performed using Biacore™ 8K biosensor to determine whether two anti-IGF1R antibodies target the same or overlapping epitopes. […] The binding value of each antibody was obtained using Biacore Insight Evaluation (Version: 2.0.15.12933). To quantify the interference of one antibody binding to another, a binding ratio was calculated to compare each pair of antibodies. […]
Write no unit; give the number alone.

anti-IGF1R antibody 10G1 (antibody, human IgG1, V domains shown) VH: QVQLVESGGGLVKPGGSLRLSCAASEFTFSDYYMSWIRQSPGKGLEWVSYISNSGSFTNYADSVKGRFTISRDNAKNSLYLQMNSLRAEDSAIYYCVRDQAPVTSKYYYYGMDVWGQGTTVTVSS VL: EIVLTQSPSSLSASVGDRVTITCRASQGIRNDFAWYQQKPGKAPKRLIYAASRLQRGVPSRFSGSGSGTEFTLTISSLQPEDFATYYCLQHNSYPYTFGQGTKLEIK    -0.02

The binder listed as anti-IGF1R antibody 12A4 (antibody, V domains shown) VH: EVQLVQSGGGEIRPGGSLRLSCAASGFTFADYGMSWVRQAPGEGLEWVSEIDWTGGSKLYADSVKGRFTISRDNAKNSLFLQMNSLRAEDTALYYCVRDRGAVSPKYYYYGMDVWGQGTTVTVSS VL: EIVLTQSPSSLSASVGDRVTITCRASQGIRNDLGWYQQKPGKAPKRLIYAASRLQSGVPSRFSGSGSGTDFTLTISSLQPEDFATYYCLQHNSYPYTFGQGTKLEIK shows binding ratio (Analyte 2 / Analyte 1) equal to -0.02

Record anti-IGF1R antibody 12D1 (antibody, human IgG1, V domains shown) VH: QVQLVESGGGVVRPGGSLRLSCAASGFTFDDYGMSWVRQVPGKGLEWVSGINWNGGSTDYADSVKGRFTISREKAKNSLYLQMNSLRAEDTALYYCVRDRGAVTRRYYYYGMDVWGQGTTVTVSS VL: DIQMTQSPSSLSASVGDRVTITCRASQDIRNDLGWYQLKPGKAPKRLIYAASRLQSGVPSRFSGSGSGTEFTLTISSLQPEDFATYYCLQHNSYPYTFGQGTKLEIK , field binding ratio (Analyte 2 / Analyte 1): -0.01

Consider anti-IGF1R antibody 10D1 (antibody, human IgG1, V domains shown) VH: QVQLQQSGGGVVRPGGSLRLSCAASGFTFADYGMSWVRQVPGKGLEWVSGINWNGGSTDYADSVKGRFTISRDNAKHSLYLQMNSLRAEDTAFYYCARDRGAVSRRYYYYGMDVWGLGTTVTVSS VL: AIQLTQSPSSLSASVGDRVTITCRASQDIRNDLGWYQLKPGKAPKRLIYAASRLQSGVPSGFSGSGSGTEFTLTISSLQPEDFATYYCLQHNSYPYTFGQGTKLEIK . Its measured binding ratio (Analyte 2 / Analyte 1) is 0.02
